test system: HCT116 (colorectal carcinoma cell line); experiment: MTS cell viability assay, 2D culture, HCT116; format: cell-based, human; settings: 48 h of exposure
The entries below are paired with their reported IC50.

| Compound | IC50 / µM |
| --- | --- |
| F[P-](F)(F)(F)(F)F.F[P-](F)(F)(F)(F)F.[Cl][Cu].[Cl][Cu].c1ccc(-c2cc(-c3ccco3)cc(-c3ccccn3)n2)nc1.c1ccc(-c2cc(-c3ccco3)cc(-c3ccccn3)n2)nc1 [complex 5, [Cu2Cl2(4′-(2-Furanyl)-terpy)2](PF6)2] | 0.26 |
| COc1ccc(-c2cc(-c3ccccn3)nc(-c3ccccn3)c2)c2ccccc12.COc1ccc(-c2cc(-c3ccccn3)nc(-c3ccccn3)c2)c2ccccc12.F[P-](F)(F)(F)(F)F.F[P-](F)(F)(F)(F)F.[Cl][Cu+].[Cl][Cu+] | 0.13 |
| COc1ccc2c(OC)ccc(-c3cc(-c4ccccn4)nc(-c4ccccn4)c3)c2c1.COc1ccc2c(OC)ccc(-c3cc(-c4ccccn4)nc(-c4ccccn4)c3)c2c1.F[P-](F)(F)(F)(F)F.F[P-](F)(F)(F)(F)F.[Cl][Cu].[Cl][Cu] | 0.15 |
| N.N.[Cl][Pt][Cl] [cisplatin, reference compound] | 15.6 |
| F[P-](F)(F)(F)(F)F.F[P-](F)(F)(F)(F)F.[Cl][Cu].[Cl][Cu].c1ccc(-c2cc(-c3ccnc4ccccc34)cc(-c3ccccn3)n2)nc1.c1ccc(-c2cc(-c3ccnc4ccccc34)cc(-c3ccccn3)n2)nc1 [complex 2, [Cu2Cl2(4′-(4-Quinolyl)-terpy)2](PF6)2] | 0.31 |
| F[P-](F)(F)(F)(F)F.F[P-](F)(F)(F)(F)F.[Cl][Cu].[Cl][Cu].c1ccc(-c2cc(-c3ccccn3)nc(-c3ccccn3)c2)nc1.c1ccc(-c2cc(-c3ccccn3)nc(-c3ccccn3)c2)nc1 [complex 7, [Cu2Cl2(4′-(2-Pyridynyl)-terpy)2](PF6)2] | 0.23 |
| F[P-](F)(F)(F)(F)F.F[P-](F)(F)(F)(F)F.[Cl][Cu].[Cl][Cu].c1ccc(-c2cc(-c3cccc4ccccc34)cc(-c3ccccn3)n2)nc1.c1ccc(-c2cc(-c3cccc4ccccc34)cc(-c3ccccn3)n2)nc1 [complex 1, [Cu2Cl2(4′-(1-Naphthyl)-terpy)2](PF6)2] | 0.16 |
| CCn1c2ccccc2c2cc(-c3cc(-c4ccccn4)nc(-c4ccccn4)c3)ccc21.CCn1c2ccccc2c2cc(-c3cc(-c4ccccn4)nc(-c4ccccn4)c3)ccc21.F[P-](F)(F)(F)(F)F.F[P-](F)(F)(F)(F)F.[Cl][Cu].[Cl][Cu] | 0.1 |
